system: RARg homodimer (NR concentration 270 nM); assay: PBM binding z-score (relative to random genomic background probes); higher = stronger binding; sequences stand for … in GC…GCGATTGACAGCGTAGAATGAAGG
Measured PBM binding z-score determines class: low (below 1), mid (1 to below 4), high (4 or more)

Solved cases below.
INSERT INTO assay_data (biosequence, answer_label) VALUES
  ('CGTCCAAGGTCAGCATGTCAGTGAAAGCGACGTG', 'high'),
  ('ACAGACAGGTGATGAAGGAAACTCAGGCTATCAT', 'low'),
  ('GCTGCTAGGTAAACTGATGGTCAGCTAAAGCTCG', 'low');

Query :: Quick check: band for CGTCCAAAGTCATAGGAGGTCAGTGAAGACAGAT
Result :: mid

Query :: Quick check: band for GATACAGGGCCAGCTAGAGGCCAGAGTATGGAAA
Result :: low

Query :: Quick check: band for GCTATTAGTTGAAAGGGCGACCGAATGATTCTCG
Result :: low

* * *

tested on: RXRa homodimer (NR concentration 180 nM); test: PBM binding z-score (relative to random genomic background probes); higher = stronger binding; sequences stand for … in GC…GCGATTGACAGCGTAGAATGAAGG
PBM binding z-score below 2 gives no; PBM binding z-score at or above it gives yes.

Solved cases below.
INSERT INTO measurements (biosequence, answer_label) VALUES
  ('ACTTACGGGTCAACGCGGTTATAGCACGCGTATA', 'yes'),
  ('CCTACTGAGCCAAAGGTCATTGATTCCAATGCTC', 'yes'),
  ('ATCTCTAGGTAAAGCTCAGTGAAAGATCGATAGA', 'no'),
  ('TTACCAAGGTGAAAGGTCTTTGATGCACGCCTTG', 'yes'),
  ('ATCGCTAGGTAAAGTTCAGTGAAAGATCGATAGA', 'no');

Query :: Has TCATATAGGTAAAGGTGAATGTCGAACGATATGA a recorded PBM binding z-score greater than or equal to 2?
Result :: no

Query :: Has ACTAGCAGGCCAAGTTTGGGTCACTCAAACAAAG a recorded PBM binding z-score greater than or equal to 2?
Result :: no

Query :: Has CGAACTAGGTCAGAACACGACAGTGAAGGATGAT a recorded PBM binding z-score greater than or equal to 2?
Result :: no

* * *

tested on: PPARg:RXRa 270nM:90nM, anti-RXR (NR concentration 270 nM, RXRa partner concentration 90 nM); assay: PBM binding z-score (relative to random genomic background probes); higher = stronger binding; sequences stand for … in GC…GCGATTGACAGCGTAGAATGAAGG
QUANTITY NAME: PBM binding z-score
Field format: numeric only.

Example sequences with recorded PBM binding z-score:
INSERT INTO assay_data (biosequence, quantity_name, reading) VALUES
  ('CGAACTAGGTCATTGACAGGACATTGAATAGTAA', 'PBM binding z-score', 6.42),
  ('ATCTCTAGGTAAAGATAGCTCAGTGAATGCAAAT', 'PBM binding z-score', 0.32),
  ('CAAACTAGGTCAAAGGTCAAATTCGAGCCAACCA', 'PBM binding z-score', 11.5),
  ('TCATATAGGTAAATGCTAGGGGAAAGTCCGATCT', 'PBM binding z-score', 2.13),
  ('GCTAGTTGGTCAGTAGAAGGTCACACACCGGTCG', 'PBM binding z-score', 2.23);

Query :: Output measured PBM binding z-score for this item: GGTCGGAGGACAAGGTCAGAGCTTTGTCCGTAGA
Result :: 1.58

Query :: Output measured PBM binding z-score for this item: CAAACTAGGTCACGGTCAAAGTCGGTTTGTGCCA
Result :: 7.81

Query :: Output measured PBM binding z-score for this item: TCATATAGGTAATACAGGTGAAAGTCGGCATCTA
Result :: 2.61

Query :: Output measured PBM binding z-score for this item: GTACCAAGGTGAATAGGTCGTAGATGAGTAGGCG
Result :: 2.02

Query :: Output measured PBM binding z-score for this item: CCCACTGGGCCATCAGGTCATTGATATCAACGTT
Result :: 3.57

Query :: Output measured PBM binding z-score for this item: ACAGACAGGTGATTGAAGGTAACTCAGCTGGACG
Result :: -0.0372

Query :: Output measured PBM binding z-score for this item: ACTATTACTTGACTTAGGGCAACCGATACGACGC
Result :: 0.283

Query :: Output measured PBM binding z-score for this item: TAGCCTAGGTCAGATCGGCCCAGTATACGCTATA
Result :: 0.986

* * *

tested on: LXRb homodimer (NR concentration 270 nM); test: PBM binding z-score (relative to random genomic background probes); higher = stronger binding; sequences stand for … in GC…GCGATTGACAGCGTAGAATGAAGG
sequences and their reported PBM binding z-score

INSERT INTO results (biosequence, reading) VALUES
  ('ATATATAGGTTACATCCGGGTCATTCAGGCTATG', 1.23),
  ('ACTAGCAGGCCAAGGGTCACTCGAGATTAGTCCG', -0.293),
  ('TAGCCTAGGTCAGATTGGGCCAGTATACGCTATA', -0.0361);

Query :: Provide the reported PBM binding z-score (system: LXRb homodimer (NR concentration 270 nM)) for TCATATAGGTAAAAGCTAGGTGAAAGTCCGATCT
Result :: -0.187

Query :: Provide the reported PBM binding z-score (system: LXRb homodimer (NR concentration 270 nM)) for ATCTCTAGGTAACCAAATTCAGTGAATGCCGAAC
Result :: 0.743

Query :: Provide the reported PBM binding z-score (system: LXRb homodimer (NR concentration 270 nM)) for GCTAGCAGGCCATTTGGGTCACACAATGACGGGC
Result :: -0.778

* * *

test system: VDR:RXRa (NR concentration 270 nM, RXRa partner concentration 90 nM); assay: PBM binding z-score (relative to random genomic background probes); higher = stronger binding; sequences stand for … in GC…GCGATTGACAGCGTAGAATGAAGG
Measured PBM binding z-score determines class: LOW (below 0.5), MEDIUM (0.5 to below 2), HIGH (2 or more)

Query :: Quick check: band for GTTATTAGTTGAAAGGGCAACCGAATGATTCTCG
Result :: MEDIUM

Query :: Quick check: band for CCTAGTTGGTCAGGAGGTAACACACCGGATATGA
Result :: LOW

Query :: Quick check: band for AGAACGAGGCCAATGAGTTGATAGCACGGGTGGC
Result :: HIGH

Query :: Quick check: band for CCTTACGGGTCACTCCAGGTTATTGCATCGGAGT
Result :: HIGH

* * *

tested on: VDR homodimer (NR concentration 270 nM); experiment: PBM binding z-score (relative to random genomic background probes); higher = stronger binding; sequences stand for … in GC…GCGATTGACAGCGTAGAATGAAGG
PBM binding z-score below 0.5 gives criterion not met; PBM binding z-score at or above it gives criterion met.

Query :: Has ACTGTTAGTTGAGACGAGGGCAACCGATAGGTTG a recorded PBM binding z-score greater than or equal to 0.5?
Result :: criterion met

* * *

sequences and their reported PBM binding z-score
tested on: RARg homodimer (NR concentration 270 nM); experiment: PBM binding z-score (relative to random genomic background probes); higher = stronger binding; sequences stand for … in GC…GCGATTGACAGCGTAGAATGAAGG
Field format: numeric only.

Example sequences with recorded PBM binding z-score:
INSERT INTO measurements (biosequence, quantity_name, reading) VALUES
  ('TAGCCTAGGTCATGAGCCAGTATACCACGCGAAC', 'PBM binding z-score', 3.99),
  ('CCTTACGGGTCACGATGTTATAGCACGACGAGCG', 'PBM binding z-score', 5.07),
  ('AGAATGTGGTTACCAAAGATCAGGGAAACGCTTG', 'PBM binding z-score', 0.17);

Query :: Output measured PBM binding z-score for this item: GGAACGAGGGCATTCGCGTTGATAGCATGGCGAT
Result :: 1.21

* * *

test system: RARa homodimer (NR concentration 270 nM); test: PBM binding z-score (relative to random genomic background probes); higher = stronger binding; sequences stand for … in GC…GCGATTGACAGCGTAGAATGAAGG
PBM binding z-score below 0.8 gives label 0; PBM binding z-score at or above it gives label 1.

INSERT INTO results (biosequence, answer_label) VALUES
  ('AATCAAAGTTCACTAGGTAACGTAAGATTCAGCT', 'label 1'),
  ('ATCTCTAGGTAAAACTTCAGTGAATCCCGAGGAT', 'label 0'),
  ('GCTAGCAGGCCATTTGGGTCACTCCATGACGGGC', 'label 0'),
  ('AGAATTAGGTTAAGATCAGGGAAACAGAATACAT', 'label 1'),
  ('TCTTGTAGATCAAGCAGGTTAAGAGAGCCTGAGT', 'label 0'),
  ('GGAACGAGGGCATTCGAGTTGTTAGCATGGCGAT', 'label 0'),
  ('ATCTCTAGGTAAAGATAGTTCAGTGTATGCAAAT', 'label 1'),
  ('TAGCCTAGATCATGGGCCAGTATACCACGCGAAC', 'label 0');

Query :: Has AGTCAAAGTTCATCTAGGTAACGTCAGATATGCT a recorded PBM binding z-score greater than or equal to 0.8?
Result :: label 1

Query :: Has CCTAGCAGGCCGATCTGGGTCACTCAAGGCTTGA a recorded PBM binding z-score greater than or equal to 0.8?
Result :: label 0

Query :: Has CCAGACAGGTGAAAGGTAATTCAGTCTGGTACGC a recorded PBM binding z-score greater than or equal to 0.8?
Result :: label 0

Query :: Has ATATGGAGGTTACATCCGGGTCATTCAGGCTATG a recorded PBM binding z-score greater than or equal to 0.8?
Result :: label 0

Query :: Has TCTTGTAGATCAAAGGTTAAGCAAGCCGAAGCCT a recorded PBM binding z-score greater than or equal to 0.8?
Result :: label 0
